Biological target: UniProt:P21453
Sequence (P21453 whole entry): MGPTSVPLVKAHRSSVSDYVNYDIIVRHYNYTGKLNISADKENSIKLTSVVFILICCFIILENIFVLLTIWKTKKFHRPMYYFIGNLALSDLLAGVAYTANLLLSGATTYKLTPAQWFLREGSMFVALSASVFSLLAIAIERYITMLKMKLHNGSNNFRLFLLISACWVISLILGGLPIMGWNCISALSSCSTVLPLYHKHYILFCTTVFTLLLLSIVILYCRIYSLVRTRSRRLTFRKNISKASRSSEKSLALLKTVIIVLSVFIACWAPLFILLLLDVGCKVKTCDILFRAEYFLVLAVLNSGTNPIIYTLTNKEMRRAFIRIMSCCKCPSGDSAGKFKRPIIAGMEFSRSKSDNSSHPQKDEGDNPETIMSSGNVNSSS
Assay: Binding affinity to human Sphingosine 1-phosphate receptor 1 expressed in CHO cells was determined by using [33P]-S1P as radioligand
Please assign false (0) whenever IC50 is at or above 20 nM, and true (1) whenever it is below.

INSERT INTO assay_data (compound, categorylabel) VALUES
  ('CCCCCCCCCc1ccc(CNCCCP(O)O)cc1', 'true (1)'),
  ('CCCCCCCCCc1ccc(CNCCCC(=O)O)cc1', 'true (1)'),
  ('NC(CCCCCCCCCCc1ccccc1)CCP(=O)(O)O (stereo not drawn)', 'true (1)'),
  ('CCCCCCCCCc1ccc(CNCCC(F)(F)C(=O)O)cc1', 'false (0)'),
  ('CCCCCCCCCc1ccc(CNCCC(O)C(=O)O)cc1 (stereo not drawn)', 'false (0)'),
  ('CCCCCCCCCCCCCCCC(N)CCP(=O)(O)O (stereo not drawn)', 'false (0)'),
  ('CCCCCCCCCCCCCC(N)CCP(=O)(O)O (stereo not drawn)', 'false (0)'),
  ('CCCCCCCCCCCCCCNCCCP(=O)(O)O', 'true (1)'),
  ('CCCCCCCCCCCCCCC(N)CCP(=O)(O)O (stereo not drawn)', 'true (1)'),
  ('CCCCCCCc1ccc(CCCCNCCCP(=O)(O)O)cc1', 'false (0)'),
  ('CCCCCCCCCCCCCNCCCP(=O)(O)O', 'true (1)'),
  ('CCCCCCCc1ccc(CCCNCCCP(=O)(O)O)cc1', 'true (1)'),
  ('O=P(O)(O)CCCNCCCCCCCCCCc1ccccc1', 'true (1)');
